All values here come from patent US11999794B2.

Items are presented alongside their recorded % Monomer (SEC).
experiment_description: Size exclusion chromatography (oligomerization state of expressed scFvs)
Format: physicochemical
condition_description: purified scFv
Provide only the numeric value, understood in %.

{"molecule": "M14: human anti-mesothelin scFv SEQ ID NO: 52; full CAR SEQ ID NO: 76 (protein) scFv: QVQLVQSGAEVRAPGASVKISCKASGFTFRGYYIHWVRQAPGQGLEWMGIINPSGGSRAYAQKFQGRVTMTRDTSTSTVYMELSSLRSDDTAMYYCARTASCGGDCYYLDYWGQGTLVTVSSGGGGSGGGGSGGGGSGGGGSDIQMTQSPPTLSASVGDRVTITCRASENVNIWLAWYQQKPGKAPKLLIYKSSSLASGVPSRFSGSGSGAEFTLTISSLQPDDFATYYCQQYQSYPLTFGGGTKVDIK", "% Monomer (SEC), %": 74.5}
{"molecule": "M16: human anti-mesothelin scFv SEQ ID NO: 54; full CAR SEQ ID NO: 78 (protein) scFv: EVQLVESGGGLVQPGRSLRLSCAASGFTFDDYAMHWVRQAPGKGLEWVSGISWNSGSTGYADSVKGRFTISRDNAKNSLYLQMNSLRAEDTALYYCAKDSSSWYGGGSAFDIWGQGTMVTVSSGGGGSGGGGSGGGGSSSELTQEPAVSVALGQTVRITCQGDSLRSYYASWYQQKPGQAPVLVIFGRSRRPSGIPDRFSGSSSGNTASLIITGAQAEDEADYYCNSRDNTANHYVFGTGTKLTVL", "% Monomer (SEC), %": 94.5}
{"molecule": "M23: human anti-mesothelin scFv SEQ ID NO: 61; CDRs in Tables 4 and 5 (protein) scFv: QVQLQQSGAEVKKPGASVKVSCKASGYTFTNYYMHWVRQAPGQGLEWMGIINPSGGYTTYAQKFQGRLTMTRDTSTSTVYMELSSLRSEDTAVYYCARIRSCGGDCYYFDNWGQGTLVTVSSGGGGSGGGGSGGGGSGGGGSDIQLTQSPSTLSASVGDRVTITCRASENVNIWLAWYQQKPGKAPKLLIYKSSSLASGVPSRFSGSGSGAEFTLTISSLQPDDFATYYCQQYQSYPLTFGGGTKVDIK", "% Monomer (SEC), %": 91}

Attention now turns to another entry.
% Monomer (SEC) reported for this molecule M5: human anti-mesothelin scFv SEQ ID NO: 43; full CAR SEQ ID NO: 67 (protein) scFv: QVQLVQSGAEVEKPGASVKVSCKASGYTFTDYYMHWVRQAPGQGLEWMGWINPNSGGTNYAQKFQGRVTMTRDTSISTAYMELSRLRSDDTAVYYCASGWDFDYWGQGTLVTVSSGGGGSGGGGSGGGGSGGGGSDIVMTQSPSSLSASVGDRVTITCRASQSIRYYLSWYQQKPGKAPKLLIYTASILQNGVPSRFSGSGSGTDFTLTISSLQPEDFATYYCLQTYTTPDFGPGTKVEIK : 82
